assay: Phase 1 single oral dose pharmacokinetics in healthy subjects (plasma and urine, LC-MS/MS); assay type: in vivo, human; conditions: human, plasma; 50 mg single oral dose, cohort S2
measured quantity: Cmax (ng/mL)
Give a bare numeral; the unit ng/mL is implied.

Exercise: Report Cmax for CN1CCC[C@]1(C)/C=C/S(=O)(=O)NC(=O)Nc1c2c(cc3c1CCC3)CCC2 please.
Solution: 5720

###

test: Phase 1 single oral dose pharmacokinetics in healthy subjects (plasma and urine, LC-MS/MS); format: in vivo, human; conditions: human, plasma; 25 mg single oral dose, cohort S1; read-out: mean elimination half-life (converted)
measured quantity: half-life (h)
Give a bare numeral; the unit h is implied.

Exercise: Report half-life for CN1CCC[C@]1(C)/C=C/S(=O)(=O)NC(=O)Nc1c2c(cc3c1CCC3)CCC2 please.
Solution: 6.53

###

assay: Phase 1 single oral dose pharmacokinetics in healthy subjects (plasma and urine, LC-MS/MS); assay type: in vivo, human; settings: human, urine; 25 mg single oral dose, cohort S1; read-out: mean cumulative percentage urinary recovery of unchanged compound
measured quantity: dose excreted
A complete answer gives the number and then names the unit.

Exercise: Report dose excreted for CN1CCC[C@]1(C)/C=C/S(=O)(=O)NC(=O)Nc1c2c(cc3c1CCC3)CCC2 please.
Solution: 93.3%

###

assay: Phase 1 single oral dose pharmacokinetics in healthy subjects (plasma and urine, LC-MS/MS); type: in vivo, human; conditions: human, plasma, oral; across all three doses (25, 50, 100 mg); read-out: mean elimination half-life (converted)
measured quantity: half-life

Exercise: Report half-life for CN1CCC[C@]1(C)/C=C/S(=O)(=O)NC(=O)Nc1c2c(cc3c1CCC3)CCC2 [Compound 11] please.
Solution: 6 to 6.5 h

###

assay: Phase 1 single oral dose pharmacokinetics in healthy subjects (plasma and urine, LC-MS/MS); type: in vivo, human; conditions: human, urine; 50 mg single oral dose, cohort S2; read-out: mean cumulative percentage urinary recovery of unchanged compound
measured quantity: dose excreted (%)
Give a bare numeral; the unit % is implied.

Exercise: Report dose excreted for CN1CCC[C@]1(C)/C=C/S(=O)(=O)NC(=O)Nc1c2c(cc3c1CCC3)CCC2 please.
Solution: 69.1
